pKi tested on Carbonic anhydrase 12 (Homo sapiens): recorded values
Sequence (O43570 whole entry): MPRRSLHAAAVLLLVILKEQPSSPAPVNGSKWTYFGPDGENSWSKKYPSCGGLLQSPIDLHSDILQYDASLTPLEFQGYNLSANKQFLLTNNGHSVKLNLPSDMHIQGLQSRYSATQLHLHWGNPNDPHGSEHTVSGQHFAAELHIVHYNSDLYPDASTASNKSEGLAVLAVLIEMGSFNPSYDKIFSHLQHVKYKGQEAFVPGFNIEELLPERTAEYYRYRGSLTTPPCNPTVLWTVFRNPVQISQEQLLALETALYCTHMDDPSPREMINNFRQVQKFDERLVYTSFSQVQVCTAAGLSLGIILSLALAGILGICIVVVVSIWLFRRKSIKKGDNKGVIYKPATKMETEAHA
// scale note: pKi = -log10(conc_M); give the bare number

given-smiles	pKi
CC(=O)[Se]c1ccccc1C(=O)O	5.09

Proceeding to the next compound to report its pKi.
Record summary for CC(=O)Sc1ccccc1C(=O)O : reported pKi = 4.85

====

- study-target: Carbonic anhydrase 4 (Homo sapiens, UniProt P22748)
- Sequence (P22748 whole entry): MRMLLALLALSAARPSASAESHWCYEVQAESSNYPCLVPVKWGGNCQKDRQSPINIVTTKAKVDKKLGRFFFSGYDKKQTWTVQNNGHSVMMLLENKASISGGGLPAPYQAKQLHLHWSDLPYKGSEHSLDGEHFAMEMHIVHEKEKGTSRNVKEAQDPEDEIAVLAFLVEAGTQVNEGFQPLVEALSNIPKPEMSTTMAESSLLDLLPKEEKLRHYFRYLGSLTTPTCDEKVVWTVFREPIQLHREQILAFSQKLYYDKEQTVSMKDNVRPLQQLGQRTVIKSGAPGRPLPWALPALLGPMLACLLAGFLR
outcome-measure: pKi
Just the number, please; pKi means minus log10 of the concentration in mol/L.

# pKi measured on Carbonic anhydrase 4 (Homo sapiens, UniProt P22748) for item CC(=O)[Se]c1ccccc1C(=O)O = 4.32

====

# Ki per entry for Carbonic anhydrase 7 (Homo sapiens, UniProt P43166)
The figure you give is taken to be in µM; do not add the unit.

Bench note, Carbonic anhydrase 7 (Homo sapiens, UniProt P43166): CC(=O)Sc1ccccc1C(=O)O , Ki reads 18.5

Record for CC(=O)[Se]c1ccccc1C(=O)O under target or system Carbonic anhydrase 7 (Homo sapiens, UniProt P43166): Ki reported as 5.2

====

Ki reference
- study-target: Carbonic anhydrase 1 (Homo sapiens)
- Sequence (P00915 whole entry): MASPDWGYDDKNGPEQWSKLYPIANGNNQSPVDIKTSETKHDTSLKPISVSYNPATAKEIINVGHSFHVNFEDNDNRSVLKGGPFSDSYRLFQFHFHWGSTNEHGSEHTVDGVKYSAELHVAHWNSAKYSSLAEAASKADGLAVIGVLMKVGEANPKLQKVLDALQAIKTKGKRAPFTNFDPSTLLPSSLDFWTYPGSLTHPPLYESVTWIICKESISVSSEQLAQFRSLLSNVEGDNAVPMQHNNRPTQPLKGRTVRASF
Numeric only. Scale: µM

given-smiles	recorded-number
CC(=O)[Se]c1ccccc1C(=O)O	5.2

For reference, reported Ki for CC(=O)Sc1ccccc1C(=O)O stands at 72.5

====

// reported pKi per item
- study-target: Carbonic anhydrase 9 (Homo sapiens, UniProt Q16790)
- assay-protocol: Inhibition of human CA9 preincubated for 15 mins by phenol red dye based stopped flow CO2 hydration assay
Quick note: pKi values are minus log10 of concentrations in mol/L.

given-smiles	study-target	recorded-number
CC(=O)[Se]c1ccccc1C(=O)O	Carbonic anhydrase 9 (Homo sapiens, UniProt Q16790)	5.85

Here's the next entry for you.
Briefly, pKi measured for CC(=O)Sc1ccccc1C(=O)O : 4.96

====

- study-target: UniProtKB P00918
outcome-measure: Ki
Answer by giving the amount and then stating its unit.

The recorded Ki for entry CC(=O)[Se]c1ccccc1C(=O)O equals 32 µM

Cited source for all entries: ChEMBL document CHEMBL5614453
